Target: T1, Lrig-1 protein expressed on the surfaces of L cells (human, UniProt Q96JA1 35-1093)
T1 construct: no signal peptide limits are stated; also called L cells that stably express Lrig-1
T1 sequence: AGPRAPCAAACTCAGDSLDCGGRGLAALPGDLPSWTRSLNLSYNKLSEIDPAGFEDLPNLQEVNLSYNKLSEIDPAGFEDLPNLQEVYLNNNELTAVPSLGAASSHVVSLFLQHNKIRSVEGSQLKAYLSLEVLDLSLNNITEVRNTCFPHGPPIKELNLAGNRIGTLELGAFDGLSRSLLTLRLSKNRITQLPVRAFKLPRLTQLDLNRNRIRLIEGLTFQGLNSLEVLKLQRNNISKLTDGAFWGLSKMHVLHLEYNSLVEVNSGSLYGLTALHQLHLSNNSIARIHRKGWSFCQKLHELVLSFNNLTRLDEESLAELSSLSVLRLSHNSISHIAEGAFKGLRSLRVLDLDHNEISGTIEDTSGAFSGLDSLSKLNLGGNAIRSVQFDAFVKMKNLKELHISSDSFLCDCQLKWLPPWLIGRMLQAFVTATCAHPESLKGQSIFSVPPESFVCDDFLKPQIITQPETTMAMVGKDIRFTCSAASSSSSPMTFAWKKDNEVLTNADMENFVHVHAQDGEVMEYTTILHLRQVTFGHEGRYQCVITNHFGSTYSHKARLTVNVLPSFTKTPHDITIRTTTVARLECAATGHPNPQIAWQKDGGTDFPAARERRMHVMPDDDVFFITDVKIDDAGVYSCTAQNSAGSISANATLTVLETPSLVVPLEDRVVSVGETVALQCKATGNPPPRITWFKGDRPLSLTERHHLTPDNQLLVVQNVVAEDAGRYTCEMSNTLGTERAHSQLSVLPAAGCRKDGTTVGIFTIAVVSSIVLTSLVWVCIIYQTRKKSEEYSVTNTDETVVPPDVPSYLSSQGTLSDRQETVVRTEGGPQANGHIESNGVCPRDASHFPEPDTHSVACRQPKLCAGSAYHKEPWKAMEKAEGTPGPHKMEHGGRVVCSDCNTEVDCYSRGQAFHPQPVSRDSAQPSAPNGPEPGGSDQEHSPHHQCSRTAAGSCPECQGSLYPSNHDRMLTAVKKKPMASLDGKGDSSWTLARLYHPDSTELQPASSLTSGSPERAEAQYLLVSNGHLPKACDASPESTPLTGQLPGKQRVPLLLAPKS
Test: FACS on L cells stably expressing Lrig-1, eFlour 670-conjugated anti-mouse secondary antibody
quantity: binding result

>  <binder>
GTC110-04 clone (Production Example 8) (antibody, mouse IgG2a, V domains shown, also called GTC110-04 antibody; GTTC110-04 antibody) VH: EVQLLESGGGLVQPGGSLRLSCAASGFTFSNYAMSWVRQAPGKGLEWVSVISHGGGSTYYADSVKGRFTISRDNSKNTLYLQMNSLRAEDTAVYYCARVISNCHLGVCYYSNGMDVWGQGTLVTVSS VL: QSVLTQPPSASGTPGQRVTISCSGSSSNIGNNDVYWYQQLPGTAPKLLIYSDSQRPSGVPDRFSGSKSGTSASLAISGLRSEDEADYYCGTWDYSLSGYVFGGGTKLTVLR

>  <dataValue>
binds

$$$$
>  <binder>
GTC110-03 clone (Production Example 7) (antibody, mouse IgG2a, V domains shown) VH: EVQLLESGGGLVQPGGSLRLSCAASGFTFSNYAMSWVRQAPGKGLEWVSAIYPGGGSIYYADSVKGRFTISRDNSKNTLYLQMNSLRAEDTAVYYCARDILPCPWGRCYYDYAMDVWGQGTLVTVSS VL: QSVLTQPPSASGTPGQRVTISCSDSSSNIGSNTVSWYQQLPGTAPKLLIYADNNRPSGVPDRFSGSKSGTSASLAISGLRSEDEADYYCGTWDYSLSGYVFGGGTKLTVLR

>  <dataValue>
binds

$$$$
>  <binder>
GTC110-02 clone (Production Example 6) (antibody, mouse IgG2a, V domains shown) VH: EVQLLESGGGLVQPGGSLRLSCAASGFTFSDYYMSWVRQAPGKGLEWVSGISHDSGSKYYADSVKGRFTISRDNSKNTLYLQMNSLRAEDTAVYYCARHWTTFDYWGQGTLVTVSS VL: QSVLTQPPSASGTPGQRVTISCSGSSSNIGSNNVTWYQQLPGTAPKLLIYANSNRPSGVPDRFSGSKSGTSASLAISGLRSEDEADYYCGAWDYSLSAYVFGGGTKLTVLR

>  <dataValue>
binds

$$$$
